- protocol-notes: Permeability in dog MDCK cells by PAMPA
- Format: ADME, cell-based, Canis lupus familiaris
- condition-description: read-out: permeability
readout-kind: Papp
Returns: string containing the number followed by the unit.

chemical-string: CCNC(=O)c1cc2c(-c3ccccc3Cc3c(C)cccc3C)cn(C)c(=O)c2[nH]1
Papp: 3.81 ×10⁻⁶ cm/s
//
chemical-string: Cc1cc(F)cc(C)c1Oc1ccc(C(C)(C)O)cc1-c1cn(C)c(=O)c2[nH]c(C(=O)NC34CC(C3)C4)cc12
Papp: 0.97 ×10⁻⁶ cm/s
//
chemical-string: CCNC(=O)c1cc2c(-c3cc(S(=O)(=O)CC)ccc3Oc3c(C)cccc3Br)cn(C)c(=O)c2[nH]1
Papp: 10.5 ×10⁻⁶ cm/s

Then there is this compound:
Find the recorded Papp belonging to CCNC(=O)c1cc2c(-c3cc(CO)ccc3Oc3c(C)cccc3C)cn(C)c(=O)c2[nH]1 and report it. 1.69 ×10⁻⁶ cm/s
